Answer each item with its documented pKi.
Target: UniProtKB P50406
Sequence (P50406 whole entry): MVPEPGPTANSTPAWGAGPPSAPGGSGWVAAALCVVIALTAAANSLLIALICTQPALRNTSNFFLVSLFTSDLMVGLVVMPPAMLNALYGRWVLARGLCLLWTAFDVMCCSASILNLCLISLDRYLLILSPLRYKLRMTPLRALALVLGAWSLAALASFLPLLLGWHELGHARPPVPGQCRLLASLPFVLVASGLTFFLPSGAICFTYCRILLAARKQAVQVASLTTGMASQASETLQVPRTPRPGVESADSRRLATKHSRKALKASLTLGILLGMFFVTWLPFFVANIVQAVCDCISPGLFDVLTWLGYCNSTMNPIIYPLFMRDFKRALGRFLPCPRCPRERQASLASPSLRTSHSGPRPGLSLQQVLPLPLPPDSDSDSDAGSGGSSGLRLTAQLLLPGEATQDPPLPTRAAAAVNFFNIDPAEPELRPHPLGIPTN
Test: Binding affinity for the 5-HT6 receptor (3H-LSD displacement, membranes of recombinant cells)
Details: 3H-LSD radioligand, 60 minute incubation at 37 °C
pKi: −log10 of the molar value.

IN: Entry under review: CN1CC=C(c2cn(S(=O)(=O)c3ccc(Cl)cc3)c3ccc(F)cc23)CC1 . Reported pKi?
OUT: ≥ 8.30

IN: Entry under review: Cc1ccc(S(=O)(=O)n2cc(C3=CCN(C)CC3)c3cc(OC4CCCCC4)ccc32)cc1 . Reported pKi?
OUT: ≥ 7.30

IN: Entry under review: CN1CC=C(c2cn(S(=O)(=O)c3cccc4ccccc34)c3ccc(F)cc23)CC1 . Reported pKi?
OUT: ≥ 8.30

IN: Entry under review: CN1CC=C(c2cn(S(=O)(=O)c3ccc(Cl)cc3)c3ccc(OC(F)(F)F)cc23)CC1 . Reported pKi?
OUT: ≥ 8.30

IN: Entry under review: CN1CC=C(c2cn(S(=O)(=O)c3ccc(F)cc3)c3ccc(Cl)cc23)CC1 . Reported pKi?
OUT: ≥ 8.30

IN: Entry under review: CN1CC=C(c2cn(S(=O)(=O)c3ccc(Cl)c([N+](=O)[O-])c3)c3ccc(F)cc23)CC1 . Reported pKi?
OUT: ≥ 7.30

IN: Entry under review: Cc1cc(C)c(S(=O)(=O)n2cc(C3=CCN(C)CC3)c3cc(F)ccc32)c(C)c1 . Reported pKi?
OUT: ≥ 7.30

IN: Entry under review: Cc1ccc(S(=O)(=O)n2cc(C3=CCN(C)CC3)c3cc(F)cc(F)c32)cc1 . Reported pKi?
OUT: ≥ 8.30

IN: Entry under review: Cc1ccc(S(=O)(=O)n2cc(C3=CCN(C)CC3)c3cc(OC(F)(F)F)ccc32)cc1 . Reported pKi?
OUT: ≥ 8.30

IN: Entry under review: CN1CC=C(c2cn(S(=O)(=O)c3ccc(F)cc3)c3ccccc23)CC1 . Reported pKi?
OUT: ≥ 8.30

IN: Entry under review: CN1CC=C(c2cn(S(=O)(=O)c3ccccc3Br)c3ccc(F)cc23)CC1 . Reported pKi?
OUT: ≥ 8.30

IN: Entry under review: CN1CC=C(c2cn(S(=O)(=O)c3cccc4ccccc34)c3c(F)cc(F)cc23)CC1 . Reported pKi?
OUT: ≥ 8.30
